study_target: imipramin-fixation sites (Rattus norvegicus, UniProt P31652)
Construct: from tissue
Sequence (P31652 whole entry): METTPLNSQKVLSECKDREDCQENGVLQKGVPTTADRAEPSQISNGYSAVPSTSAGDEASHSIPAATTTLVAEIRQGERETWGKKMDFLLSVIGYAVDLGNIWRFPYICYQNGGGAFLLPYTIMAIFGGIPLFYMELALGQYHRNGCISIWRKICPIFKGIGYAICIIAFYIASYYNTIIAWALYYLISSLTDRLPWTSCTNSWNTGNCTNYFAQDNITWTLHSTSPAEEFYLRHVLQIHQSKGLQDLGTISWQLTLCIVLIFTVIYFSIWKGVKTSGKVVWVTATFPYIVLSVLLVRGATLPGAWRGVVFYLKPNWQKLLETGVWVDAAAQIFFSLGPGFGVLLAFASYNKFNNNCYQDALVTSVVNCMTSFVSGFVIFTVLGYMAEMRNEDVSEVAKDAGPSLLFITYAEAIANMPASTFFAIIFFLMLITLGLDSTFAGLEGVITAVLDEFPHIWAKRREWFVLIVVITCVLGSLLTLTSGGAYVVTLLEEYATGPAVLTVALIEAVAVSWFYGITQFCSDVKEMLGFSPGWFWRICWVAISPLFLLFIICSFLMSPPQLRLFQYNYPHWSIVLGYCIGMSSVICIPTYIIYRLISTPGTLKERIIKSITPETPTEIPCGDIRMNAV
run_description: Inhibition of 3H-Imipramin binding (imipramin-fixation sites)
test_conditions: 1 × 10^-6 mole/l
readout_name: 3H-Imipramin % Inhibition
In your response, put the unit directly after the numeric value.

Use the examples below as a reference point.
Cl.O=c1ccc(-c2ccc(Cn3ccnc3)s2)nn1CCN1CCCCC1 [F]; 7%
Cc1cc(-c2ccccc2)nn(CCN2CCOCC2)c1=O.Cl [H, reference compound]; 8%
Cl.O=c1ccc(-c2ccc(Cn3ccnc3)s2)nn1CCN1CCOCC1 [E]; 4%
Cl.O=c1ccc(-c2ccc(Cn3cccn3)s2)nn1CCN1CCOCC1 [D]; 34%

Prompt: Report the value of 3H-Imipramin % Inhibition obtained on imipramin-fixation sites (Rattus norvegicus, UniProt P31652) for Cl.O=c1ccc(-c2ccc(Cn3ccnc3)s2)nn1CCCN1CCCCC1 [G] .
Completion: 27%

----------
Listed below: IC50 values for each entry.
study_target: imipramin-fixation sites (Rattus norvegicus, UniProt P31652)
Construct: from tissue
run_description: Inhibition of 3H-Imipramin binding (imipramin-fixation sites)
test_conditions: log-probit-analysis
Numbers only; they are read as µM.

# annotated cases, reported IC50 shown
C[N+](C)([O-])CCC=C1c2ccccc2CCc2ccccc21 [Amitriptylinoxid, reference compound]; 24
Cl.O=c1ccc(-c2ccc(Cn3cccn3)s2)nn1CCN1CCOCC1; 20
Cl.O=c1ccc(-c2ccc(Cn3ccnc3)s2)nn1CCN1CCCCC1; 7

Okay, next one:
Prompt: Provide one value: measured IC50 of Cl.O=c1ccc(-c2ccc(Cn3ccnc3)s2)nn1CCCN1CCCCC1
Completion: 3

----------
This listing pairs compounds with measured 3H-Imipramin % Inhibition.
study_target: imipramin-fixation sites (Rattus norvegicus, UniProt P31652)
Construct: from tissue
run_description: Inhibition of 3H-Imipramin binding (imipramin-fixation sites)
test_conditions: 1 × 10^-4
Form entry: value (%) — number only.

Cl.O=c1ccc(-c2ccc(Cn3ccnc3)s2)nn1CCN1CCOCC1; 40
Cc1cc(-c2ccccc2)nn(CCN2CCOCC2)c1=O.Cl [H, reference compound]; 36
Cl.O=c1ccc(-c2ccc(Cn3ccnc3)s2)nn1CCCN1CCCCC1; 86
Cl.O=c1ccc(-c2ccc(Cn3ccnc3)s2)nn1CCN1CCCCC1; 62

Then this compound:
Prompt: System imipramin-fixation sites (Rattus norvegicus, UniProt P31652). Read-out 3H-Imipramin % Inhibition. Item Cl.O=c1ccc(-c2ccc(Cn3cccn3)s2)nn1CCN1CCOCC1 . Report value.
Completion: 87

----------
Recorded IC50, one value per entry.
study_target: benzodiazepin-receptors
run_description: Inhibition of 3H-Flunitrazepam binding (benzodiazepin-receptors)
test_conditions: log-probit-analysis
Your answer is read as µM, so omit the unit and give the number.

Solved entries:
Cl.O=c1ccc(-c2ccc(Cn3ccnc3)s2)nn1CCN1CCCCC1 [F]; 90
CN1CCN=C(c2ccccc2)c2cc(Cl)ccc21 [Medazepam, reference compound]; 3.9
Cl.O=c1ccc(-c2ccc(Cn3cccn3)s2)nn1CCN1CCOCC1 [D]; 60

Prompt: Please give the documented IC50 of Cl.O=c1ccc(-c2ccc(Cn3ccnc3)s2)nn1CCN1CCOCC1 [E]
Completion: 9

----------
Tested on: benzodiazepin-receptors
run_description: Inhibition of 3H-Flunitrazepam binding (benzodiazepin-receptors)
test_conditions: 1 × 10^-4 mole/l
Label key: Criterion met means 3H-Flunitrazepam % Inhibition under 50%; Criterion not met means 3H-Flunitrazepam % Inhibition of 50% or more.

Prompt: Strictly below 50%: is that where 3H-Flunitrazepam % Inhibition of Cl.O=c1ccc(-c2ccc(Cn3ccnc3)s2)nn1CCCN1CCCCC1 sits?
Completion: Criterion met
